# TESTED TARGET: Human COX I (Homo sapiens, UniProt P23219)
# Construct: A 2.0 kb fragment containing the coding region of either human or murine COX-I or human or murine COX-II; made in house; host or cells: SF9 insect cells (recombinant baculovirus, transfer vector pVL1393)
# Sequence (P23219 24-599): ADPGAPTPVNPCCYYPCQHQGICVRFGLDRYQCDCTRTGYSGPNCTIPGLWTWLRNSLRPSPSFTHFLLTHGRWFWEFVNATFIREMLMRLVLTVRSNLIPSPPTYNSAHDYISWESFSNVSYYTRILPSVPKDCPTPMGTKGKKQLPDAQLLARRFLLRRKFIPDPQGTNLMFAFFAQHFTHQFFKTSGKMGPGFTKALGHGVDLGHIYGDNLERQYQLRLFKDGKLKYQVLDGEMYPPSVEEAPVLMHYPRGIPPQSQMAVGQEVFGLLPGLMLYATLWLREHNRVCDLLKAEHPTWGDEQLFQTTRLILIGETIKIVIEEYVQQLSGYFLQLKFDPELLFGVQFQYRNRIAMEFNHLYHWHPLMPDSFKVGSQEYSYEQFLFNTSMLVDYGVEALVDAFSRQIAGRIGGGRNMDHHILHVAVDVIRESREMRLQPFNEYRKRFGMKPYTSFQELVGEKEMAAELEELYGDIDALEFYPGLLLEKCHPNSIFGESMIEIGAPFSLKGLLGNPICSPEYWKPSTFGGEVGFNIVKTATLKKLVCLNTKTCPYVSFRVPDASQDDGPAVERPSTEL
# ASSAY NAME: COX I activity in vitro (PGE2 ELISA, recombinant enzyme)
# Type: biochemical
# MEASUREMENT CONDITIONS: arachidonic acid 10 μM, pre-incubation 10-20 minutes; read-out: Human COX I ID50
EXPERIMENTAL READOUT: IC50 (µM)

> print(dat)
                                   compound  experimental.readout  result.units  value.reported
1  CS(=O)(=O)c1ccc(-c2nc(/C=C/c3ccccc3)[nH]c2-c2ccc(F)cc2)cc1                  IC50            µM             2.2

P = Cc1cccc(-c2[nH]c(C(F)(F)F)nc2-c2ccc(S(N)(=O)=O)cc2)c1
Q = CS(=O)(=O)c1ccc(-c2nc(C(F)(F)F)[nH]c2-c2ccc3ccccc3c2)cc1
### Prompt Hi, I'm comparing two records. Which one has the lower IC50, P or Q ? Use the label to indicate which entry you chose.
### Response Q
(Q: 2 µM, P: 6.2 µM)

====

EXPERIMENTAL READOUT: melting point

Some molecules with recorded melting point:
> print(dat)
                                    compound  value.reported
 1  CN(C)c1ccc(-c2[nH]c(C(F)(F)F)nc2-c2ccc(S(C)(=O)=O)cc2)cc1   248 to 251 °C
 2  CC(F)(F)c1nc(-c2ccc(F)cc2)c(-c2ccc(S(C)(=O)=O)cc2)[nH]1          211 °C
 3  CS(=O)(=O)c1ccc(-c2nc(COc3ccccc3)[nH]c2-c2ccc(F)cc2)cc1   189 to 190 °C
 4  CS(=O)(=O)c1ccc(-c2nc(-c3cc4ccccc4o3)[nH]c2-c2ccc(F)cc2)cc1   235 to 237 °C
 5  CS(=O)(=O)c1ccc(-c2nc(C(F)(F)F)[nH]c2-c2ccccc2)cc1   228 to 230 °C
 6  CC(C)c1nc(-c2ccc(S(C)(=O)=O)cc2)c(-c2ccc(F)cc2)[nH]1   214 to 215 °C
 7  Cc1cc(-c2[nH]c(C(F)(F)F)nc2-c2ccc(S(C)(=O)=O)cc2)ccc1Cl   261 to 264 °C
 8  CS(=O)(=O)c1ccc(-c2nc(C(F)(F)F)[nH]c2-c2ccc3ccccc3c2)cc1   228 to 230 °C
 9  CS(=O)(=O)c1ccc(-c2nc(C(=O)Cc3ccccc3)[nH]c2-c2ccc(F)cc2)cc1        263.2 °C
10  CS(=O)(=O)c1ccc(-c2nc(SCc3ccccc3)[nH]c2-c2ccc(F)cc2)cc1   155 to 156 °C

### Prompt Return melting point for the following molecule: "CC(=O)c1nc(-c2ccc(F)cc2)c(-c2ccc(S(C)(=O)=O)cc2)[nH]1"
### Response 215 to 217 °C

### Prompt Return melting point for the following molecule: "NS(=O)(=O)c1ccc(-c2nc(C(F)(F)F)[nH]c2-c2ccc(F)cc2)cc1"
### Response 259 to 260 °C

### Prompt Return melting point for the following molecule: "CS(=O)(=O)c1ccc(-c2nc(CO)[nH]c2-c2ccc(F)cc2)cc1"
### Response 115 to 117 °C

### Prompt Return melting point for the following molecule: "CS(=O)(=O)c1ccc(-c2nc(C(F)(F)F)[nH]c2C2CCCC2)cc1"
### Response 210 to 212 °C

### Prompt Return melting point for the following molecule: "CS(=O)(=O)c1ccc(-c2nc(C(F)(F)F)[nH]c2-c2ccc(F)cc2)cc1"
### Response 249 to 250 °C (dec.)

### Prompt Return melting point for the following molecule: "Cc1ccc(-c2[nH]c(C(F)(F)F)nc2-c2ccc(S(C)(=O)=O)cc2)cc1Cl"
### Response 273 to 275 °C
